Molecular target: hCB1R (Homo sapiens)
Sequence (P21554 whole entry): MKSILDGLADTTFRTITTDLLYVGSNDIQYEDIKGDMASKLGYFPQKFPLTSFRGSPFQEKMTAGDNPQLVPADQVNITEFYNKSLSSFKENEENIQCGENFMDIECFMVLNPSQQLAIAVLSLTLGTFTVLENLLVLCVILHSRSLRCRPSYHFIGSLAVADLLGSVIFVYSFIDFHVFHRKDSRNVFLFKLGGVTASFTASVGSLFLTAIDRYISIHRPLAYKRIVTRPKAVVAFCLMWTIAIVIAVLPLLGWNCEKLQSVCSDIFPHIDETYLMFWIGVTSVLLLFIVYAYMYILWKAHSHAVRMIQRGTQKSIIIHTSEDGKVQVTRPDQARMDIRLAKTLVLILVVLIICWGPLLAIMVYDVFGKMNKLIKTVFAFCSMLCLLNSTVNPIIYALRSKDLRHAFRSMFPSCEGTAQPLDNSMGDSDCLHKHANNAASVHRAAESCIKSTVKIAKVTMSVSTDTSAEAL
Test: HitHunter cAMP assay, inhibition of forskolin-stimulated cAMP
Assay type: cell-based
Details: 10 µM FSK, 90 min, 37 °C; agonism mode without CP55,940; allosteric ago-PAM
attributeMeasured: EC50 (nM)
Numbers only, in nM.

API: value(readout= EC50, system= hCB1R (Homo sapiens), query= O=[N+]([O-])CC(c1ccccc1F)c1c(-c2cccc(F)c2)[nH]c2c(F)cccc12 (stereo not shown) )
45
